B1: CRYL1 (parent)
chain: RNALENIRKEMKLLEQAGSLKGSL

variants of: B1; test: protein stability index of a GFP-peptide fusion (GPS, HEK-293T) (PSI 1-6); higher = more stable; details: c terminus: a fixed tail appended;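 note: lentivirally expressed fusions sorted by FACS into six bins by GFP to DsRed ratio, PSI derived from sequencing read proportions per bin multiplied by bin number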
Lab note: class by protein stability index, see bin 0 (below 3), bin 1 (3 to below 4), bin 2 (4 or more)

Solved cases below.
[
  {
    "SEQUENCE CHANGE": "S19G",
    "QUALITATIVE LABEL": "bin 1"
  },
  {
    "SEQUENCE CHANGE": "E10R",
    "QUALITATIVE LABEL": "bin 0"
  },
  {
    "SEQUENCE CHANGE": "R8P",
    "QUALITATIVE LABEL": "bin 2"
  },
  {
    "SEQUENCE CHANGE": "K9M",
    "QUALITATIVE LABEL": "bin 0"
  },
  {
    "SEQUENCE CHANGE": "Q16F",
    "QUALITATIVE LABEL": "bin 0"
  }
]

IN: Please indicate the class for A17Y based on its protein stability index.
OUT: bin 0

IN: What do you get for Q16W ?
OUT: bin 0

IN: What do you get for A3S ?
OUT: bin 2

IN: What do you get for K21W ?
OUT: bin 0

IN: What do you get for E10V ?
OUT: bin 0

IN: What do you get for G22T ?
OUT: bin 1

IN: What do you get for Q16L ?
OUT: bin 0

IN: What do you get for R8T ?
OUT: bin 2

IN: What do you get for E5W ?
OUT: bin 0

IN: What do you get for L4H ?
OUT: bin 2

IN: What do you get for R1Q ?
OUT: bin 1

IN: What do you get for A3D ?
OUT: bin 1

IN: What do you get for R8F ?
OUT: bin 0

IN: What do you get for A17W ?
OUT: bin 0

IN: What do you get for E5L ?
OUT: bin 0

IN: What do you get for L14C ?
OUT: bin 1

IN: What do you get for N6E ?
OUT: bin 1

IN: What do you get for N2L ?
OUT: bin 0

The values you see were collected from the supplement of paper PMC10567573.
